test: qHTS assay to identify small molecule agonists of the hypoxia (HIF-1) signaling pathway - cell viability counter screen (AID 1224844); conditions: HRE-bla ME-180 viability, CellTiter-Glo luminescence, 17 h; series mostly up to 76.8 µM; also: nearly all actives have a fitted effect of over 50% in size
Results filed as inconclusive are left out. Activity calls are given as the source filed them. Calls follow the shape of the full dose curve.
Tick one outcome: Y = active, N = inactive

Use these answered entries as a reference point.
> print(dat)
                                   compound  label.value
1   Cc1ccc(N(SC(F)(Cl)Cl)S(=O)(=O)N(C)C)cc1            Y
2  C[C@]12CC[C@@H](O)C[C@@H]1CC[C@@H]1[C@@H]2CC[C@]2(C)C(=O)CC[C@@H]12            Y
3  Cc1nnc2n1-c1sc(CCc3ccc(CC(C)C)cc3)cc1C(c1ccccc1Cl)=NC2C (stereo unspecified)            Y
4                N#Cc1cc([N+](=O)[O-])ccc1N            N
5                          Oc1c(I)cc(I)cc1I            Y
6  ClC1=C(Cl)[C@]2(Cl)[C@@H]3[C@@H](Cl)[C@H]4O[C@H]4[C@@H]3C1(Cl)C2(Cl)Cl            N
7      CC(c1ccccc1)(c1ccc(O)cc1)c1ccc(O)cc1            Y
8    CCOC(=O)C(O)(c1ccc(Cl)cc1)c1ccc(Cl)cc1            N

*Q* Look up the recorded call for CCN(CC)C(=O)Cl in this test.
*A* N

*Q* Look up the recorded call for Cc1cc(C)c(C(=O)P(=O)(c2ccccc2)c2ccccc2)c(C)c1 in this test.
*A* Y

*Q* Look up the recorded call for Cc1ccc2nc3sc(=O)sc3nc2c1 in this test.
*A* Y

---

Molecular target: Acetylcholinesterase (Homo sapiens)
Assay: Acetylcholinesterase (AChE) small molecule antagonists: colormetric cell-based qHTS assay (AID 1347395); also: % is scaled to controls: 0 for no effect and ±100 for the full control effect; nearly all actives have a fitted effect of over 30% in size
Conditions: SH-SY5Y cells AChE activity, colorimetric (Ellman); series mostly up to 115 µM
From the text: National Center for Advancing Translational Sciences [NCATS] Division of Preclinical Innovation [DPI] U.S. Environmental Protection Agency [EPA] National Institutes of Environmental Health Sciences [NIEHS] National Toxicology Program [NTP] U.S. Food and Drug Administration [FDA] Acetylcholinesterase (AChE) is the primary cholinesterase in the body that hydrolyzes a key neurotransmitter, acetylcholine. Inhibition of AChE activity can lead to neurotoxicity. […]
Records with an inconclusive call do not appear. Active and inactive are the calls of the source. The call rests on the fitted dose curve.
observable: activity, negative = inhibition

In the examples that follow, each entry is paired with its recorded activity, negative = inhibition.
molecule	test result
CCCCC(CC)C(=O)OCCOCCOCCOC(=O)C(CC)CCCC (stereo not given)	inactive
CCCCNc1ccc(NCCCC)c2c1C(=O)c1ccccc1C2=O	-1.89% [at 23.6 µM] (inactive)
Cc1cc(C(C)(C)C)c(O)c(C)c1CC1=NCCN1	inactive
CN(C/C=C/C#CC(C)(C)C)Cc1cccc2ccccc12	inactive
c1ccc2cnccc2c1	inactive

*Q* Using the record for CC(C)OB(OC(C)C)OC(C)C , report its activity, negative = inhibition.
*A* inactive

*Q* Using the record for CCOCOCC , report its activity, negative = inhibition.
*A* inactive
